Where do the numbers come from? From patent US11415579B2.

Biological target: Cdk2(N272C) (C177A) (Homo sapiens, UniProt P24941, C177A/N272C)
Construct: poly-histidine; made in house; host or cells: E. coli
Assay: Kinetic thiol consumption assay with Cdk2 mutant N272C
Type: binding
Parameters: key: rate constant with Cdk2 ÷ rate constant with model thiol (fold)
Conditions: Cdk2 N272, additional mutation C177A
Please respond with reported Rate enhancement, Cdk2 N272 for every item in the list.
Simply state the number, no unit and no words.

INPUT: I would be grateful if you could share the reported Rate enhancement, Cdk2 N272 for C=CC(=O)N1CCCCCC1C/C=C/c1ccccc1 (centres unmarked) .
OUTPUT: 0.8907

INPUT: Which Rate enhancement, Cdk2 N272 value belongs to C=CC(=O)NC1C2CC3CC(C2)CC1C3 (centres unmarked) ?
OUTPUT: 4.591

INPUT: Fill in: Rate enhancement, Cdk2 N272 of C=CC(=O)NCCNC(=O)C1CCCN1S(=O)(=O)c1ccccc1 (centres unmarked) is ___
OUTPUT: 0.5596

INPUT: Give its Rate enhancement, Cdk2 N272 value. Item: C=CC(=O)Nc1ccc(C(=O)c2ccccc2)cc1
OUTPUT: 0.8368

INPUT: # get_value(readout='Rate enhancement, Cdk2 N272', item= C=CC(=O)N1CCCC1c1cnc2ccccc2c1 (centres unmarked) )
OUTPUT: 1.056

----------
Target: Cdk2(H71C) (C177A) (Homo sapiens, UniProt P24941, C177A/H71C)
Construct: poly-histidine; made in house; host or cells: E. coli
Test: Kinetic thiol consumption assay with Cdk2 mutant H71C
Format: binding
Parameters: key: rate constant with Cdk2 ÷ rate constant with model thiol (fold)
Settings: Cdk2 H71C, additional mutation C177A
Exercise: for every item that follows, state its recorded Rate enhancement, Cdk2 H71C.

INPUT: Quick one: Rate enhancement, Cdk2 H71C of O=C(CCl)N1CCSc2ccccc21 ?
OUTPUT: 0.3522

INPUT: Reported Rate enhancement, Cdk2 H71C, compound N#Cc1ccncn1 : ____
OUTPUT: 0

INPUT: Need Rate enhancement, Cdk2 H71C of C=CC(=O)N1CCn2cccc2C1c1ccccc1 (stereo not drawn) , thanks.
OUTPUT: 1.456

INPUT: Which value of Rate enhancement, Cdk2 H71C has been reported for C=CC(=O)NC1CC(NC(=O)C2CCC2)C1 (stereo not drawn) in the records?
OUTPUT: 0

INPUT: Given the entry C=CC(=O)NCC1CN(C2CC2)CCO1 (stereo not drawn) , report its measured Rate enhancement, Cdk2 H71C.
OUTPUT: 0.8254

INPUT: Given the entry C=CC(=O)N1CCN(Cc2noc(C3CC3)n2)CC1 , report its measured Rate enhancement, Cdk2 H71C.
OUTPUT: 0.1944

INPUT: Item C=CC(=O)N1CC2(CCC2)c2c(F)cccc21 has what recorded Rate enhancement, Cdk2 H71C?
OUTPUT: 1.537

INPUT: For the compound shown here, C=CC(=O)NCc1ccc(-c2csnn2)cc1 , give the reported Rate enhancement, Cdk2 H71C.
OUTPUT: 0.7553

INPUT: Suppose we examine the compound C=CC(=O)N1CC2CC2C1 (stereo not drawn) ; what Rate enhancement, Cdk2 H71C value has been reported?
OUTPUT: 0

INPUT: // query Rate enhancement, Cdk2 H71C value for entry C=CC(=O)NC(C)c1ccc2c(c1)OCO2 (stereo not drawn)
OUTPUT: 0

INPUT: Fill in the blank: the reported Rate enhancement, Cdk2 H71C of C=CC(=O)NC1CCN(Cc2ccccc2)CC1 is ____.
OUTPUT: 0

INPUT: So what does the record say about Rate enhancement, Cdk2 H71C for C=CC(=O)NC1(C2CC2)CC1 ?
OUTPUT: 0

INPUT: Given the entry C=CC(=O)N1CCC2(CCCCCC2)C1 , report its measured Rate enhancement, Cdk2 H71C.
OUTPUT: 0.5753

INPUT: Which Rate enhancement, Cdk2 H71C reading was recorded for the compound C=CC(=O)N1CC(n2cccn2)C1 ?
OUTPUT: 0.1755

INPUT: Look at this compound and give its reported Rate enhancement, Cdk2 H71C. C=CC(=O)Nc1cccc(Nc2ncnc3cc(OC)c(OC)cc23)c1
OUTPUT: 0.6345

INPUT: Requested field: Rate enhancement, Cdk2 H71C. Item: C=CC(=O)N1CCCC1CC1CC2CCC1C2 (stereo not drawn)
OUTPUT: 35.53

INPUT: I have this compound here, C=CC(=O)NC(C)c1cccc(N2CCOCC2)c1 (stereo not drawn) , and I need its recorded Rate enhancement, Cdk2 H71C.
OUTPUT: 0

INPUT: Reported Rate enhancement, Cdk2 H71C, compound C=CC(=O)N1CC2CN(Cc3ccccc3)CC2C1 (stereo not drawn) : ____
OUTPUT: 0

INPUT: Which measured Rate enhancement, Cdk2 H71C value corresponds to C=CC(=O)Nc1ccccc1C#N ?
OUTPUT: 0.5613

INPUT: Could you share which Rate enhancement, Cdk2 H71C value was measured for C=CC(=O)NC1(c2noc(C3CC3)n2)CCCC1 ?
OUTPUT: 0

INPUT: Looking for the measured Rate enhancement, Cdk2 H71C of C=CC(=O)N1CCCCCC1c1cccs1 (stereo not drawn) , can you help?
OUTPUT: 1.092

INPUT: // returns reported Rate enhancement, Cdk2 H71C for input C=CC(=O)NCC1CCCN1S(=O)(=O)c1ccc(C(=O)O)cc1 (stereo not drawn)
OUTPUT: 0

INPUT: Look at this compound and give its reported Rate enhancement, Cdk2 H71C. C=CC(=O)N1CCCN2C(=O)CCC12c1ccc(OC)cc1 (stereo not drawn)
OUTPUT: 0.8583

INPUT: Which value of Rate enhancement, Cdk2 H71C has been reported for C=CC(=O)Nc1ccc(C(=O)c2ccccc2)cc1 in the records?
OUTPUT: 0.5597

INPUT: // query Rate enhancement, Cdk2 H71C value for entry C=CC(=O)N1CCN(S(C)(=O)=O)CC1c1ccccc1 (stereo not drawn)
OUTPUT: 0.9714

INPUT: Look at this compound and give its reported Rate enhancement, Cdk2 H71C. C=CC(=O)NCCCN(C(=O)C1CCC1)C1CC1
OUTPUT: 0

INPUT: Look at this compound and give its reported Rate enhancement, Cdk2 H71C. C=CC(=O)N1CCCC2(CCCc3ccccc32)C1 (stereo not drawn)
OUTPUT: 0.8209

INPUT: Find the recorded Rate enhancement, Cdk2 H71C belonging to C=CC(=O)Nc1ccc2nc(C)[nH]c2c1 and report it.
OUTPUT: 0.5644

INPUT: Consider the compound C=CC(=O)NCCN1CCOCC1 and give its measured Rate enhancement, Cdk2 H71C.
OUTPUT: 0.09555

INPUT: // lookup Rate enhancement, Cdk2 H71C for C=CC(=O)N1CCC2CCC(C1)N2C (stereo not drawn)
OUTPUT: 0.08025

INPUT: Can you share its Rate enhancement, Cdk2 H71C? I mean this compound: C=CC(=O)N1CCCC1c1cnc2ccccc2c1 (stereo not drawn)
OUTPUT: 0.8653

INPUT: What value of measured Rate enhancement, Cdk2 H71C is listed for C=CC(=O)N1CCc2cc(-c3cccc(F)c3)ccc21 ?
OUTPUT: 0.5064

INPUT: Field request: Rate enhancement, Cdk2 H71C | item: C=CC(=O)N1C(=O)CC(c2ccccc2)N(C(=O)C=C)c2ccccc21 (stereo not drawn)
OUTPUT: 0
